target: T1, His-human LIGHT (human)
T1 construct: also called His-huLIGHT; free LIGHT
T1 chain: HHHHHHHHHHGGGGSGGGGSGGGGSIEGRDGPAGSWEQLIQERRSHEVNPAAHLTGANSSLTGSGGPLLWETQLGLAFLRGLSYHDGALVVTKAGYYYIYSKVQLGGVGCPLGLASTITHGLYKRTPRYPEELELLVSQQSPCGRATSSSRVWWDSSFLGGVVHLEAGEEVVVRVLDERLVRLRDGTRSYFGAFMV
experiment summary: SPR, Biacore 8K, antibody on CM5 chip
observed property: Kd (nM)

binder="LT-m55 (antibody, human IgG4, V domains shown) VH: EVQLQQSGAELVKPGASVKLSCKASGYTFATYYMYWVKQRPGQGLEWIGEINPTNGGTIFNEKFKTKATLTVDKSSSTAYMQLSSLTSEDSAVYYCARGNWPYWSFDVWGAGTSVTVSS VL: DIVLTQSPASLAVSLGQRATISCKASQSVDFDGDNYMNWYQQKPGQPPKLLIYAASNLDSGIPARFSASGSGTDFTLNIHPVEEEDAATYYCQQSIEDPWTFGGGTKLEIK" observed_property=Kd test_result=0.0685
binder="LT-m31 (antibody, human IgG4, V domains shown) VH: QIQLLQSGPELEKPGETVKISCKASGYTFTNYGMNWVKQAPGKGLKWMGWINTYTGEPTYADDFKGRFAFSLETSASTAYLQINNLKNEDTATYFCARDNWDGKGMDYWGQGTSVTVSS VL: DIVLTQSPKFMSTSVGDRVSITCKASQDVDTAVAWYQQKPGHSPKLLLYWASTRHTGVPDRFTGSGSGTDFTLTISNVQSEDLADYFCHQYGSYPLTFGAGTKLELK" observed_property=Kd test_result=0.0395
binder="LT-m33 (antibody, human IgG4, V domains shown) VH: QVQLKQSGAELVKPGASVRLSCKTSGYTFTNYYVYWVKQRPGQGLEWIGEINPTNGDPNFNEKFKSKATLTVDKSSSTAYMHLSSLTSEDSAVYYCTRSNWDYGNAMDFWGQGTSVTVSS VL: DIVMTQSPASLAVSLGQRATISCKASQSVDFDGDGYMNWYQQKPGQPPKLLIYKASHLDSGIPARFSGSGSGTDFTLNIHPVEEEDAATYYCQQSIEDPLTFGDGTRLEIK" observed_property=Kd test_result=0.0235
binder="LT-m85 (antibody, human IgG4, V domains shown) VH: EVQLQQSGAELVKPGASVKMSCKASGYTFTSYNVHWVKQTPGQGLEWIGAVYPGNGDTSYNQKFKGKATLTADKSSNTAYMQLSSLTSEDSAVYYCARGSYYYTSSYFDHWGQGTTLTVSS VL: DIVLTQSPASLAVSLGQRATISCKASQSVDFDGDSYMNWYQQKPGQPPKLLIYTASNLESGIPARFTGSGSGTDFTLNIHPVEEEDAATYYCQQSYEDPFTFGSGTKLEIK" observed_property=Kd test_result=0.0674
binder="LT-m64 (antibody, human IgG4, V domains shown) VH: EVKLEESGAELVKPGASVRLSCKTSGYTFTNYYVYWVKQRPGQGLEWIGEINPTNGDPNFNEKFKSKATLTVDKSSSTAYMHLSSLTSEDSAVYYCTRSNWDYGNAMDFWGQGTSVTVSS VL: DIVMTQSPASLAVSLGQRATISCKASQSVDFDGDGYMNWYQQKPGQPPKLLIYKASHLDSGIPARFSASGSGTDFTLNIHPVEEEDAATYYCQQSIEDPFTFGSGTKLEIK" observed_property=Kd test_result=0.0557
binder="LT-m58 (antibody, human IgG4, V domains shown) VH: QVQLQQSGAEMASPGASVTLSCKASGYTFIDHIMNWVKKRPGQGLEWIGRIYPVSGETNYNQKFMGKATFSVDRSSSTVYMVLNSLTSEDPAVYYCGRGSYYWNAMDYWGQGTTLTVSS VL: DIVMTQSPASLAVSLGQRATISCKASQSVDFDGDSYMNWYQQKPGQPPKLLIYSASNLESGIPARFSGSGSGTDFTLNIHPVEEEDAATYYCQQSIEDPWTFGGGTKLEIK" observed_property=Kd test_result=0.0696

Data origin, for the record: patent EP4596580A1
